Source listed as the supplement of paper PMC10567573.

B1: NCK2 (parent)
chain: YVERKNSLKKGSLVKNLKDTLGLG

Variants of: B1
protocol: protein stability index of a GFP-peptide fusion (GPS, HEK-293T) (PSI 1-6); higher = more stable;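 note: lentivirally expressed fusions sorted by FACS into six bins by GFP to DsRed ratio, PSI derived from sequencing read proportions per bin multiplied by bin number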
conditions: c terminus: a fixed tail appended
Parameter threshold = 2. Response is fulfilled when protein stability index meets or exceeds it, else not fulfilled.

# count of solved cases: 5
variant-description | assigned-class
K9A | fulfilled
L8F | fulfilled
S7R | fulfilled
N6D | fulfilled
L13G | fulfilled

# input Hi, just wondering whether G11K shows protein stability index of 2 or higher.
# output fulfilled

# input Dear colleague, could you confirm whether K10W has protein stability index at or above 2?
# output not fulfilled
